Recorded inhibition at 5 µg/mL values for a group of compounds are listed next.
# Test system: cells originated from human mouth tumor (KB-cells)
# Experimental Details: Inhibition of proliferation using cells originated from human mouth tumor (KB-cells)
# Assay type: cell-based
# Condition Info: 96 h, 5 µg/ml, stationary culture at 37°C for 4 days, surviving cell number (Trypan Blue) relative to control
Value expressed in %; do not type the unit.

Solved cases (6 shown):
| Compound | Experimental Value |
| --- | --- |
| CCCCC[C@H](O)/C=C/[C@H]1C(=O)C=C[C@@H]1C/C=C\CCCC(=O)N(C)C [Compound 7] | 100 |
| CCCCCC=CC=C1C(=O)C=CC1CC=CCCCC(=O)N(C)C (centres unmarked) [Compound 8] | 100 |
| CCCCC[C@H](O)/C=C/[C@H]1C(=O)C=C[C@@H]1C/C=C\CCCC(N)=O [Compound 10] | 100 |
| CCCCC[C@H](O)/C=C/[C@H]1C(=O)C[C@H](O)[C@@H]1C/C=C\CCCC(N)=O [Compound 9] | 98.8 |
| CCCCCC=CC=C1C(=O)C=CC1CC=CCCCC(=O)CO (centres unmarked) [Compound 3] | 100 |
| CCCCC[C@H](O)/C=C/[C@H]1C(=O)C[C@H](O)[C@@H]1C/C=C\CCCC(=O)CO [Compound 1, 2-Decarboxy-2-glycoloyl-PGD2] | 100 |

Next item in the queue.
The measured inhibition at 5 µg/mL associated with CCCCC[C@H](O)/C=C/[C@H]1C(=O)C=C[C@@H]1C/C=C\CCCC(=O)NS(C)(=O)=O [Compound 4, 9-Deoxy-Δ^9-PGD2 methanesulfonylamide] reads 25.5

---

# System: cells originated from human mouth tumor (KB-cells)
# Experimental Details: Inhibition of proliferation using cells originated from human mouth tumor (KB-cells)
# Format: cell-based
# Condition Info: 96 h, 5 µg/ml, stationary culture at 37°C for 4 days, surviving cell number (Trypan Blue) relative to control
Assay Metric: inhibition at 5 µg/mL (%)
Value expressed in %; do not type the unit.

| Molecule | Assay Metric | Experimental Value |
| --- | --- | --- |
| CCCCCC=CC=C1C(=O)C=CC1CC=CCCCC(=O)NS(C)(=O)=O (stereo not shown) | inhibition at 5 µg/mL | 34.6 |
| CCCCCC=CC=C1C(=O)C=CC1CC=CCCCC(N)=O (stereo not shown) | inhibition at 5 µg/mL | 100 |
| CCCCC[C@H](O)/C=C/[C@H]1C(=O)C=C[C@@H]1C/C=C\CCCC(=O)CO | inhibition at 5 µg/mL | 100 |

Next item in the queue.
The measured inhibition at 5 µg/mL associated with CCCCC[C@H](O)/C=C/[C@H]1C(=O)C[C@H](O)[C@@H]1C/C=C\CCCC(=O)N(C)C reads 100

Numbers sourced from patent EP0098141A2.
